B1: LINE1-full (parent)
chain: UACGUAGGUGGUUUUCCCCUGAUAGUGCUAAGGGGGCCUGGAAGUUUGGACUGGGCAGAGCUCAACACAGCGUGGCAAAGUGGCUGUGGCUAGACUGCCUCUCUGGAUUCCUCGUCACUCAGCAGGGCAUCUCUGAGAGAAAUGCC

- Variants of: B1
- experiment: self-cleavage, relative activity (ratio to wild type); higher = more cleavage; in vitro, sequencing; the parent is a self-cleaving ribozyme
measurementType: self-cleavage

- U13C A43G: 0.99
- G11A A124U: 1.43
- A92G U115A: 0.12
- U12C U108C: 1.66
- U26A A50C: 0.78
- U13A C131U: 1.15
- A77G A92G: 0.2
- A64U U73C: 0.58
- U12A U47C: 1.17
- U20C U81C: 1.13
- U23C A50G: 1.34
- A65G G89A: 0.04
- A65G A140C: 0.13
- C38A A43G: 0.59
- G8C G75A: 1.2
- U5A U14A: 1.15
- C19U U87A: 0.09
- G82A U108C: 2.48
- C68G A141G: 0.04
- U96C A142G: 0.13
- U13A A50G: 0.76
- G55C A77U: 0.06
